Read-out: Intercellular Adhesion Molecule 1 (ICAM1), ICAM1 (gene 3383)
Experiment: BSK_KF3CT_ICAM1: BioMAP Diversity Plus: KF3CT Assay for Intercellular Adhesion Molecule 1 (ICAM1) Biomarker Activity (AID 2283067)
Conditions: primary human keratinocytes with fibroblasts; actives raise or lower the signal
Activity calls are given as the source filed them. How the source made its calls: active means hit-call score of the fitted dose curve at least 0.9, where 1 is the maximum; inactive means score below 0.9.
Pick one and only one: T (active), F (inactive)

Example entries begin here.
[
  {
    "compound": "CCC[CH2][Sn]([Cl])([CH2]CCC)[CH2]CCC",
    "category label": "T"
  },
  {
    "compound": "CN(C)c1ccccc1",
    "category label": "F"
  }
]

[Q] Which outcome was entered for the compound CCOc1cccc(C2(N3CCN(c4ccccc4)CC3)CCC(C)CC2)c1 (configuration not stated) in this test?
[A] F

[Q] Which outcome was entered for the compound "c1ccc2c(c1)-c1cccc3cccc-2c13" in this test?
[A] F

[Q] Which outcome was entered for the compound "c1ccc2c(c1)oc1ccccc12" in this test?
[A] F

[Q] Which outcome was entered for the compound "Clc1ccc(Cl)c(Cl)c1" in this test?
[A] F

[Q] Which outcome was entered for the compound "C1=Cc2cccc3cccc1c23" in this test?
[A] F
